Reference for the values: patent US5462957A

# Experimental target: aromatase (Homo sapiens)
# Construct: human placenta microsomes (a protein concentration of 0.1 mg/ml); from tissue; host or cells: human placenta microsomes
# Sequence (P11511 1-503): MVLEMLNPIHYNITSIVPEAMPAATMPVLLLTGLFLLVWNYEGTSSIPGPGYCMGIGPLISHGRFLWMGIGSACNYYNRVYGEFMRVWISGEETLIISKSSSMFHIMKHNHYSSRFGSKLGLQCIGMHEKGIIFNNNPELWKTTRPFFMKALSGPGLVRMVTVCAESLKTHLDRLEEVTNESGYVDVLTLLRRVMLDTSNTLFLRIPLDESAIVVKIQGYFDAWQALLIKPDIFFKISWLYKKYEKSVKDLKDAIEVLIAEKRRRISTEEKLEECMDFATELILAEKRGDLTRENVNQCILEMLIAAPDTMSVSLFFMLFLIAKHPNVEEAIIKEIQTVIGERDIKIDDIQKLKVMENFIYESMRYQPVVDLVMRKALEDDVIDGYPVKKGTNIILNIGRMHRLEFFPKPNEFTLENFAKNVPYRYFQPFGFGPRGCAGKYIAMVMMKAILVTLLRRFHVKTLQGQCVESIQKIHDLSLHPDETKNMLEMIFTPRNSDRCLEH
# Test name: Aromatase inhibitory activity (human placenta microsomes, [19-14C]4-androstene-3,17-dione)
# Type: biochemical
Reported property: pIC50
Numbers only, as −log10 of the molar value.

Consider the following illustrative entries.
In [3]: df
Out[3]:
                                   compound  value
0  CC1OCC(Cc2ccc(F)cc2)C1(O)Cn1cncn1 (centres unmarked)   5.22
1  CC1(C)OCC(Cc2ccc(Cl)cc2)C1(O)Cn1cncn1 (centres unmarked)   5.15
2  CC1(C)OCC(Cc2ccc(F)cc2F)C1(O)Cn1ccnc1 (centres unmarked)   6.57
3  CC1(C)OCC(Cc2ccc(Cl)cc2Cl)C1(O)Cn1ccnc1 (centres unmarked)   5.82
4  CC1(C)OCC(Cc2ccc(F)cc2F)C1(O)Cn1cncn1 (centres unmarked)   5.52
5  CC1(C)OCC(Cc2ccc(C#N)cc2)C1(O)Cn1cncn1 (centres unmarked)   5.92
6  CC1(C)OCC(Cc2ccc(Cl)cc2)C1(O)Cn1ccnc1 (centres unmarked)   6.30
7  CC1(C)OCC(Cc2ccc(F)cc2)C1(O)Cn1ccnc1 (centres unmarked)   6.32
8  CC1(C)OCC(Cc2ccccc2-c2ccccc2)C1(O)Cn1cncn1 (centres unmarked)   5.33
9  CC1(C)OCC(Cc2ccc(Cl)cc2Cl)C1(O)Cn1cncn1 (centres unmarked)   6.00

Exam item: Write pIC50 of CC1(C)OCC(Cc2ccc(F)cc2)C1(O)Cn1cncn1 (centres unmarked) ; system used: aromatase (Homo sapiens)
Marked response: 5.28

----------
# System: spontaneous mastocarcinoma
# Test name: Antitumor effects: tumor growth inhibition in rats with mastocarcinoma
# Assay type: in vivo, Sprague-Dawley rats
# Particulars: Rattus norvegicus, ip; female Sprague-Dawley rats given 7,12-dimethylbenzanthracene; intraperitoneal, 25 mg/kg daily for 20 consecutive days; mean tumor weight vs saline control; read-out: Tumor growth inhibition rate (%)
inhibition in vivo at 25 mg/kg vs 70%: at or above is MET, below is NOT MET.

Use the examples below as a reference point.
In [3]: df
Out[3]:
                                   molecule    label
0  CC1(C)OCC(Cc2ccc(C#N)cc2)C1(O)Cn1cncn1 (stereo not drawn)  NOT MET
1  CC1OCC(Cc2ccc(F)cc2)C1(O)Cn1cncn1 (stereo not drawn)  NOT MET
2  OC1(Cn2ccnc2)COCC1Cc1ccc(F)cc1 (stereo not drawn)      MET

Exam item: Evaluate CC1(C)OCC(Cc2ccc(Cl)cc2)C1(O)Cn1ccnc1 (stereo not drawn) : inhibition in vivo at 25 mg/kg at minimum 70%?
Marked response: MET

Exam item: Evaluate CC1(C)OCC(Cc2ccc(F)cc2F)C1(O)Cn1ccnc1 (stereo not drawn) : inhibition in vivo at 25 mg/kg at minimum 70%?
Marked response: NOT MET

Exam item: Evaluate CC1(C)OCC(Cc2ccccc2-c2ccccc2)C1(O)Cn1cncn1 (stereo not drawn) : inhibition in vivo at 25 mg/kg at minimum 70%?
Marked response: MET
